Catalogue of molecules with associated z-score of subpopulation abundance
Test system: Saccharomyces cerevisiae BY4741 SeMeCo community
testMethodNotes: z-score of subpopulation abundance vs DMSO median, subpopulation auxotrophic for M; higher = larger share of this subpopulation than in DMSO controls
runConditions: 10 µM; 24 h; SM minimal medium; subpopulation (auxotrophy): M
Structures can show the parent of a compound that is named as a salt.
observable: z-score of subpopulation abundance

INSERT INTO measurements (molecule, value) VALUES
  ('CCC1=C[C@H]2CN3CCc4c([nH]c5ccccc45)[C@](C(=O)OC)(C2)[C@H]13', -0.42),
  ('C[C@@H]1O[C@@H](O[C@H]2C[C@@H](O)[C@]3(CO)[C@H]4[C@H](O)C[C@]5(C)[C@@H](C6=CC(=O)OC6)CC[C@]5(O)[C@@H]4CC[C@]3(O)C2)[C@H](O)[C@H](O)[C@H]1O', -0.73),
  ('CN1[C@@H]2CC[C@H]1C[C@@H](OC(=O)C(CO)c1ccccc1)C2 (stereo partly specified) [Atropine sulfate monohydrate]', -0.25),
  ('CCN(C)C(=O)Oc1cccc([C@H](C)N(C)C)c1 [Rivastigmine Tartrate]', -0.28),
  ('C[C@H]1O[C@H](O[C@H]2[C@H](O)[C@@H](O)[C@@H](O)[C@H](O)[C@@H]2O)[C@@H](N)C[C@@H]1NC(=N)C(=O)O [Kasugamycin hydrochloride]', -0.97),
  ('C=CCN1C[C@H](C(=O)N(CCCN(C)C)C(=O)NCC)C[C@@H]2c3cccc4[nH]cc(c34)C[C@H]21', -0.27);

###

Test system: Saccharomyces cerevisiae BY4741 SeMeCo community
testMethodNotes: z-score of subpopulation abundance vs DMSO median, subpopulation auxotrophic for HU; higher = larger share of this subpopulation than in DMSO controls
runConditions: 10 µM; 24 h; SM minimal medium; subpopulation (auxotrophy): HU
Structures can show the parent of a compound that is named as a salt.
Catalogue of compounds with associated z-score of subpopulation abundance
observable: z-score of subpopulation abundance

INSERT INTO measurements (compound, value) VALUES
  ('COC(=O)C1=CCCN(C)C1', 0.06),
  ('CN(C)[C@@H]1C(=O)C(C(N)=O)=C(O)[C@@]2(O)C(=O)C3=C(O)c4c(O)cccc4[C@@](C)(O)[C@H]3C[C@@H]12 [Tetracycline HCl]', -0.3),
  ('CN1C(=O)COc2c(C(=O)NC3CN4CCC3CC4)cc(Cl)cc21 (configuration not stated) [Azasetron HCl]', -0.34),
  ('CCN1CC2(OC(=O)c3ccccc3NC(C)=O)CCC(OC)C34C1C(CC23)C1(O)CC(OC)C2CC4C1(O)C2OC (configuration not stated)', 0.26),
  ('CCN(C)C(=O)Oc1cccc([C@H](C)N(C)C)c1 [Rivastigmine]', 0.2),
  ('CC1(C)SC2C(N)C(=O)N2C1C(=O)O (configuration not stated)', 0.4),
  ('CN[C@@H]1[C@@H](O)[C@@H](O[C@@H]2[C@@H](O)[C@H](O[C@H]3O[C@H]([C@@H](C)O)[C@@H](O)[C@H](O)[C@H]3N)[C@@H](N)C[C@H]2N)OC[C@]1(C)O [Geneticin (G418 Sulfate)]', -0.46);

###

Catalogue of molecules with associated z-score of subpopulation abundance
System: Saccharomyces cerevisiae BY4741 SeMeCo community
testMethodNotes: z-score of subpopulation abundance vs DMSO median, subpopulation auxotrophic for L; higher = larger share of this subpopulation than in DMSO controls
runConditions: 10 µM; 24 h; SM minimal medium; subpopulation (auxotrophy): L
Counter-ions that a name gives are not always drawn.
observable: z-score of subpopulation abundance

INSERT INTO results (molecule, observable, value) VALUES
  ('CCOC(=O)Nc1ccc(NCc2ccc(F)cc2)cc1N [Retigabine]', 'z-score of subpopulation abundance', -0.58),
  ('CCC1=C[C@H]2CN3CCc4c([nH]c5ccccc45)[C@](C(=O)OC)(C2)[C@H]13 [Catharanthine]', 'z-score of subpopulation abundance', -0.77),
  ('O=c1cccc2n1C[C@@H]1CNC[C@H]2C1 [Cytisine]', 'z-score of subpopulation abundance', 0.2),
  ('CN1c2ccccc2C(NCCCCCCC(=O)O)c2ccc(Cl)cc2S1(=O)=O (centres undefined) [Tianeptine sodium]', 'z-score of subpopulation abundance', -0.37),
  ('Cn1cc(C2=C(c3cn(C4CCN(Cc5ccccn5)CC4)c4ccccc34)C(=O)NC2=O)c2ccccc21', 'z-score of subpopulation abundance', -1.15),
  ('CC(C)N(CCC(C(N)=O)(c1ccccc1)c1ccccn1)C(C)C (centres undefined) [Disopyramide]', 'z-score of subpopulation abundance', 2.35),
  ('CCOC(=O)Nc1ccc(NCc2ccc(F)cc2)cc1N [Retigabine 2HCl]', 'z-score of subpopulation abundance', -0.41),
  ('NCC(O)c1ccc(O)cc1 (racemic) [(+,-)-Octopamine HCl]', 'z-score of subpopulation abundance', -0.17),
  ('C[N+]1(C)[C@@H]2C[C@@H](OC(=O)[C@H](CO)c3ccccc3)C[C@H]1[C@@H]1O[C@@H]12 [Methscopolamine]', 'z-score of subpopulation abundance', 0.57);
